Source listed as patent US12227512B2.

experiment: Mouse PK evaluation, plasma, IV; details: CD-1, mouse, in vivo, 3 mg/kg, Plasma concentration, Mouse 1, 3 mg/kg IV, CD-1 mice, 4 h
measured property: concentration at 4 h (ng/mL)
Just the number please, in ng/mL, no unit attached.

Lookup: Would you kindly share the measured concentration at 4 h for CN(C)CCCn1c(N)nc2ccc3c(c21)CC(CN(C)C)O3 (single isomer, unassigned) [Compound E1] ?
Found: 13.3

====

assay: Mouse PK evaluation, plasma, IV; conditions: CD-1, mouse, in vivo, 3 mg/kg, Plasma concentration, Mean, 3 mg/kg IV, CD-1 mice, 24 h
measured property: concentration at 24 h (ng/mL)
Just the number please, in ng/mL, no unit attached.

Lookup: Would you kindly share the measured concentration at 24 h for CN(C)CCCn1c(N)nc2ccc3c(c21)CC(CN(C)C)O3 (single isomer, unassigned) [Compound E1] ?
Found: 6.1

====

test system: Vero 76; test: Neutral Red (Toxicity) of the antiviral screening; settings: Assay No. 3; Neutral Red (Cytopathic effect/Toxicity) line
measured property: CC50

Lookup: Would you kindly share the measured CC50 for CN(C)CCCn1c(N)nc2ccc3c(c21)CC(CO)O3 (stereo not shown) ?
Found: > 100 µM

====

tested on: SUFU-KO-Light cells expressing Gli-luciferase; assay: Dose-effect curves, dual-Glo luciferase, Compusyn; assay type: cell-based; conditions: SUFU-KO-Light, Gli-luciferase, Fa=0.5; unit from FIG. 15 legend; read-out: Dose Ink
measured property: EC50 (nM)
Just the number please, in nM, no unit attached.

Lookup: Recorded EC50 for CC(C)n1nc(-c2ccc3oc(N)nc3c2)c2c(N)ncnc21 [Ink-128, reference compound] with SUFU-KO-Light cells expressing Gli-luciferase, please?
Found: 6.13

====

experiment: Mouse PK evaluation, plasma, IV; conditions: CD-1, mouse, plasma, intravenous, 3 mg/kg, Plasma concentration, Mouse 1, 3 mg/kg IV, CD-1 mice, 0.083 h
measured property: concentration at 0.083 h (ng/mL)
Just the number please, in ng/mL, no unit attached.

Lookup: Would you kindly share the measured concentration at 0.083 h for CN(C)CCCn1c(N)nc2ccc3c(c21)CC(CO)O3 (stereo not shown) ?
Found: 1250

====

experiment: Mouse PK evaluation, plasma, IV; conditions: CD-1, mouse, plasma, iv, 3 mg/kg, MRTInf_obs, Mouse 1, 3 mg/kg IV, CD-1 mice
measured property: MRT inf (h)
Just the number please, in h, no unit attached.

Lookup: Would you kindly share the measured MRT inf for CN(C)CCCn1c(N)nc2ccc3c(c21)CC(CO)O3 (stereo not shown) [DD041] ?
Found: 1.57

====

experiment: Mouse PK evaluation, plasma, IV; conditions: CD-1, mouse, plasma, intravenous, 3 mg/kg, Plasma concentration, Mean, 3 mg/kg IV, CD-1 mice, 4 h
measured property: concentration at 4 h (ng/mL)
Just the number please, in ng/mL, no unit attached.

Lookup: Would you kindly share the measured concentration at 4 h for CN(C)CCCn1c(N)nc2ccc3c(c21)CC(CO)O3 (stereo not shown) ?
Found: 27.4

====

assay: Mouse PK evaluation, plasma, IV; details: CD-1, mouse, in vivo, 3 mg/kg, Plasma concentration, Mouse 1, 3 mg/kg IV, CD-1 mice, 8 h
measured property: concentration at 8 h (ng/mL)
Just the number please, in ng/mL, no unit attached.

Lookup: Would you kindly share the measured concentration at 8 h for CN(C)CCCn1c(N)nc2ccc3c(c21)CC(CN(C)C)O3 (single isomer, unassigned) [Compound E1] ?
Found: 5.5

====

assay: Mouse PK evaluation, plasma, IV; conditions: CD-1, mouse, plasma, intravenous, 3 mg/kg, Plasma concentration, Mouse 3, 3 mg/kg IV, CD-1 mice, 0.5 h
measured property: concentration at 0.5 h (µg/mL)
Just the number please, in µg/mL, no unit attached.

Lookup: Would you kindly share the measured concentration at 0.5 h for CN(C)CCCn1c(N)nc2ccc3c(c21)CC(CO)O3 (stereo not shown) [DD041] ?
Found: 0.267

====

test: Neutral Red (Toxicity) of the antiviral screening; conditions: human, Huh7 cells, CC50, Assay No. 2; Neutral Red (Toxicity), line of the virus yield reduction assay
measured property: CC50 (µM)
Just the number please, in µM, no unit attached.

Lookup: Would you kindly share the measured CC50 for CN(C)CCCn1c(N)nc2ccc3c(c21)CC(CO)O3 (stereo not shown) ?
Found: 26

====

experiment: Mouse PK evaluation, plasma, IV; details: CD-1, mouse, plasma, intravenous, 3 mg/kg, Plasma concentration, Mouse 3, 3 mg/kg IV, CD-1 mice, 1 h
measured property: concentration at 1 h (ng/mL)
Just the number please, in ng/mL, no unit attached.

Lookup: Would you kindly share the measured concentration at 1 h for CN(C)CCCn1c(N)nc2ccc3c(c21)CC(CO)O3 (stereo not shown) [DD041] ?
Found: 187

====

assay: Mouse PK evaluation, plasma, IV; conditions: CD-1, mouse, plasma, intravenous, 3 mg/kg, Plasma concentration, Mean, 3 mg/kg IV, CD-1 mice, 0.25 h
measured property: concentration at 0.25 h (µg/mL)
Just the number please, in µg/mL, no unit attached.

Lookup: Would you kindly share the measured concentration at 0.25 h for CN(C)CCCn1c(N)nc2ccc3c(c21)CC(CO)O3 (stereo not shown) [DD041] ?
Found: 0.417

====

assay: Mouse PK evaluation, plasma, IV; conditions: CD-1, mouse, plasma, iv, 3 mg/kg, AUCInf, Mouse 3, 3 mg/kg IV, CD-1 mice
measured property: AUC(0-inf) (ng·h/mL)
Just the number please, in ng·h/mL, no unit attached.

Lookup: Would you kindly share the measured AUC(0-inf) for CN(C)CCCn1c(N)nc2ccc3c(c21)CC(CO)O3 (stereo not shown) ?
Found: 829

====

assay: Mouse PK evaluation, plasma, IV; settings: CD-1, mouse, in vivo, 3 mg/kg, Plasma concentration, Mouse 3, 3 mg/kg IV, CD-1 mice, 1 h
measured property: concentration at 1 h (ng/mL)
Just the number please, in ng/mL, no unit attached.

Lookup: Would you kindly share the measured concentration at 1 h for CN(C)CCCn1c(N)nc2ccc3c(c21)CC(CN(C)C)O3 (single isomer, unassigned) [Compound E1] ?
Found: 55.5

====

assay: Mouse PK evaluation, plasma, IV; details: CD-1, mouse, plasma, intravenous, 3 mg/kg, Plasma concentration, Mouse 2, 3 mg/kg IV, CD-1 mice, 0.25 h
measured property: concentration at 0.25 h (ng/mL)
Just the number please, in ng/mL, no unit attached.

Lookup: Would you kindly share the measured concentration at 0.25 h for CN(C)CCCn1c(N)nc2ccc3c(c21)CC(CO)O3 (stereo not shown) [DD041] ?
Found: 403

====

experiment: Mouse PK evaluation, plasma, IV; conditions: CD-1, mouse, plasma, intravenous, 3 mg/kg, Plasma concentration, Mouse 3, 3 mg/kg IV, CD-1 mice, 0.083 h
measured property: concentration at 0.083 h (ng/mL)
Just the number please, in ng/mL, no unit attached.

Lookup: Would you kindly share the measured concentration at 0.083 h for CN(C)CCCn1c(N)nc2ccc3c(c21)CC(CO)O3 (stereo not shown) ?
Found: 1190

====

system: Shh-NPD (Hh subcategory); experiment: MTT assay, Medulloblastoma cell line; assay type: cell-based
measured property: pEC50
Scale for pEC50: -log10 of concentration given in mol/L; no unit attached.

Lookup: Recorded pEC50 for CN(C)CCCn1c(N)nc2ccc3c(c21)CC(CN(C)C)O3 (single isomer, unassigned) [Compound E2] with Shh-NPD (Hh subcategory), please?
Found: 6.14

====

system: MB002 cells; assay: MTT assay, cell proliferation; format: cell-based; conditions: MB002, MTT, dose for Fa=0.5 inhibition (50%); read-out: Dose Cis
measured property: IC50 (nM)
Just the number please, in nM, no unit attached.

Lookup: Would you kindly share the measured IC50 for N.N.[Cl][Pt][Cl] [Cisplatin, reference compound] ?
Found: 780

====

system: Gli-luciferace activity in the SUFU-KO-light cells; assay: SUFU-KO-Light assay, inhibition of Gli-luciferase activity; assay type: cell-based; settings: read-out: IC50 (μM) SUFU-KO-Light; inhibition of Gli-luciferase activity; listed as Isis-11 (−isomer/E2)
measured property: IC50 (µM)
Just the number please, in µM, no unit attached.

Lookup: Would you kindly share the measured IC50 for CN(C)CCCn1c(N)nc2ccc3c(c21)CC(CN(C)C)O3 (single isomer, unassigned) [Compound E2] ?
Found: 0.1

====

assay: Mouse PK evaluation, plasma, IV; conditions: CD-1, mouse, in vivo, 3 mg/kg, Plasma concentration, Mouse 2, 3 mg/kg IV, CD-1 mice, 24 h
measured property: concentration at 24 h
// unit must come after the numeric part

Lookup: Would you kindly share the measured concentration at 24 h for CN(C)CCCn1c(N)nc2ccc3c(c21)CC(CN(C)C)O3 (single isomer, unassigned) [Compound E1] ?
Found: 4.11 ng/mL
